Assay System: Prostaglandin E2 receptor EP2 subtype (Homo sapiens) (UniProt P43116)
Sequence (P43116 whole entry, looked up): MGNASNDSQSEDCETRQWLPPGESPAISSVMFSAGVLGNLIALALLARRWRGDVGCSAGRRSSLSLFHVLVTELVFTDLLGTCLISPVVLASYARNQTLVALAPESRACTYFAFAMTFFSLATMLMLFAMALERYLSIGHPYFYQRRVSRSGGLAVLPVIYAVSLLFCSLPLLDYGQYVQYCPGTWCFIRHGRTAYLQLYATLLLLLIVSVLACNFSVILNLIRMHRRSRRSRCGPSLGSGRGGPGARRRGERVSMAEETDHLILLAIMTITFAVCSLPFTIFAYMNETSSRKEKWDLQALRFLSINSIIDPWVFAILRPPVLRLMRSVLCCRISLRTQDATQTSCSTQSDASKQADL
Method: EP2 receptor modulators, dose response, cell-based, human EP2, PGE2 EC50 shift (AID 1421)
Experimental Conditions: EP2-expressing cells, PGE2 EC50 shift by compound; measured here: PGE2 EC50 at 6.7 uM compound
Documented PGE2 EC50 with compound across a set of compounds
Lab book: enter the figure in nM, no units written.

Example compounds with recorded PGE2 EC50 with compound:
compound=Cc1ccc(S(=O)(=O)c2c(C)cc(C)nc2N2CCCCC2)cc1 unit_descriptor=nM observed_measurement=1.31
compound=CCn1c2c(c3cc(OCC(C)C)ccc31)CCCC2=O unit_descriptor=nM observed_measurement=1.09
compound=Cc1nc2ccccn2c1C(=O)CSc1ccc(Cl)cc1Cl unit_descriptor=nM observed_measurement=1.47
compound=O=C1/C(=C/c2cccnc2)SC(=NCc2ccccc2)N1Cc1ccccc1 unit_descriptor=nM observed_measurement=1.29
compound=CN1CCCN(C(=O)Cc2c(Cl)cccc2Cl)c2nc3ccccc3nc21 unit_descriptor=nM observed_measurement=0.9

## Input Reported PGE2 EC50 with compound, compound c1ccc(Cc2nc3ccccc3n2Cc2ccccc2)cc1 : ____
## Output 0.81

## Input # repeat for CCOP(=O)(OCC)c1nc(-c2cccc3ccccc23)oc1NCc1ccc(OC)cc1
## Output 0.72

## Input # repeat for O=C(N=C1SCC(=O)N1c1ccccc1Cl)c1ccccc1
## Output 1.03

## Input # repeat for O=C(N/N=C/c1cccc(F)c1)NC1CCCCC1
## Output 1.1

## Input # repeat for CCN1C(c2ccccc2)C(C)C(=O)C(C)C1c1ccccc1 (configuration not stated)
## Output 0.85

## Input # repeat for CC(C)c1nc(N2CCN(C(=O)c3ccccc3)CC2)c(C#N)c2c1COC(C)(C)C2
## Output 0.97

## Input # repeat for O=C(/C=C/Nc1ccccc1Oc1ccccc1)c1ccco1
## Output 2.67

## Input # repeat for C/C(=C\c1ccc(C(=O)O)cc1)c1ccc2c(c1)C(C)(C)CCC2(C)C
## Output 0.79

## Input # repeat for COc1ncnc2c1oc1nc(CC(C)C)c3c(c12)CCCC3
## Output 0.91

## Input # repeat for CCCCOC(=O)CSc1nc(N)c(C#N)c(-c2ccc(OCC)cc2)c1C#N
## Output 1.39

## Input # repeat for CC(C)(Oc1ccc(Cl)cc1)C(=O)N(Cc1ccccc1)c1ccccn1
## Output 1.07

## Input # repeat for CCc1ccc(C2=Nn3c(nnc3-c3cccs3)SC2)cc1
## Output 1.43

## Input # repeat for CC(C)Cc1nc(SCc2cccnc2)c2c(=O)n(C)c(=O)n(C)c2n1
## Output 0.67

## Input # repeat for c1ccc2c(-c3nc(C4CCCCC4)no3)cc(-c3ccncc3)nc2c1
## Output 0.34

---

Assay System: Prostaglandin E2 receptor EP2 subtype (Homo sapiens)
Method: EP2 receptor modulators, dose response, cell-based, human EP2, PGE2 EC50 shift (AID 1421)
Experimental Conditions: EP2-expressing cells, PGE2 EC50 shift by compound; measured here: PGE2 EC50 at 6.7 uM compound
# note: boundary value 1 nM maps to 0.0; PGE2 EC50 with compound below it maps to 1.0

## Input Please state whether PGE2 EC50 with compound is below 1 nM for CC(=C\c1ccccc1)/C=C1/SC(=S)N(C(C(=O)O)C(C)C)C1=O (stereo unspecified)
## Output 0.0

## Input # repeat for c1ccc(-c2csc3ncnc(N4CCc5ccccc5C4)c23)cc1
## Output 0.0

## Input # repeat for CCCOc1ccccc1Cn1c(=O)oc2ccc(C)cc21
## Output 0.0

## Input # repeat for Nc1cc(Cl)ccc1Oc1ccc(Cl)cc1
## Output 1.0

## Input # repeat for CC(=O)Nc1ccc(C2=NN(c3ccccc3)C(c3cccs3)C2)cc1 (stereo unspecified)
## Output 1.0

---

Assay System: Prostaglandin E2 receptor EP2 subtype (Homo sapiens)
Method: EP2 receptor modulators, dose response, cell-based, human EP2, PGE2 EC50 shift (AID 1421)
Experimental Conditions: EP2-expressing cells, PGE2 EC50 shift by compound; measured here: PGE2 EC50 at 6.7 uM compound
Documented PGE2 EC50 with compound across a set of compounds
Lab book: enter the figure in nM, no units written.

Example compounds with recorded PGE2 EC50 with compound:
compound=COc1ccccc1/C=C/C(=O)OCC(=O)Nc1ccccc1Sc1ccccc1 assay_system="Prostaglandin E2 receptor EP2 subtype (Homo sapiens)" unit_descriptor=nM observed_measurement=0.76
compound=CCOC(=O)CNC(=O)c1ccc2c(c1)OCCO2 assay_system="Prostaglandin E2 receptor EP2 subtype (Homo sapiens)" unit_descriptor=nM observed_measurement=2.56
compound=CSc1nc2ccccc2c(=O)n1Cc1ccc(F)cc1 assay_system="Prostaglandin E2 receptor EP2 subtype (Homo sapiens)" unit_descriptor=nM observed_measurement=0.87
compound=O=c1c2ccccc2c(=O)n(Cc2ccccc2)n1Cc1ccccc1 assay_system="Prostaglandin E2 receptor EP2 subtype (Homo sapiens)" unit_descriptor=nM observed_measurement=1.16

## Input Reported PGE2 EC50 with compound, compound Cc1cc(C(=O)CSc2nc3ccccc3c(=O)n2C)c(C)n1Cc1ccc2c(c1)OCO2 : ____
## Output 3.33

## Input # repeat for CCOC(=O)C(Cc1ccccc1)(NC(C)=O)C(=O)OCC
## Output 1.39

## Input # repeat for CCOC(=O)C1CCCN(C(=O)c2ccc(C)cc2O)C1 (stereo unspecified)
## Output 1.44

## Input # repeat for CC(C)Sc1nc2sc3c(c2c2nnc(SCC(=O)NCc4ccco4)n12)CCCC3
## Output 0.93

## Input # repeat for O=c1cc(N2CCCCC2)c(-c2ccccc2)nn1Cc1ccccc1
## Output 1.25

## Input # repeat for CCCc1cc(=O)[nH]c(SCC(=O)N2CCC(C(=O)OCC)CC2)n1
## Output 0.64

## Input # repeat for Cn1c(C(=O)N2CCCc3ccccc32)cc2sccc21
## Output 2.41

---

Assay System: Prostaglandin E2 receptor EP2 subtype (Homo sapiens)
Method: EP2 receptor modulators, dose response, cell-based, human EP2, PGE2 EC50 shift (AID 1421)
Experimental Conditions: EP2-expressing cells, PGE2 EC50 shift by compound; measured here: PGE2 EC50 at 6.7 uM compound
Metric Name: PGE2 EC50 with compound (nM)
Lab book: enter the figure in nM, no units written.

Example molecules with recorded PGE2 EC50 with compound:
molecule=CCCCCCn1c(SCC(C)C)nc2c1c(=O)[nH]c(=O)n2C metric_name="PGE2 EC50 with compound" observed_measurement=1.08
molecule=O=C(Nc1ccccc1Oc1ccccc1)c1ccc(Br)o1 metric_name="PGE2 EC50 with compound" observed_measurement=1.05
molecule=COc1ccc(-c2cc(-c3ccccc3)nc(N3CCCC3)n2)cc1OC metric_name="PGE2 EC50 with compound" observed_measurement=1.12
molecule="C#CCN1C(C)=C(C(=O)OC)C(c2cccc([N+](=O)[O-])c2)C(C(=O)OCC)=C1C (stereo unspecified)" metric_name="PGE2 EC50 with compound" observed_measurement=2.62
molecule=Cc1ccccc1C(=N)c1ccccc1Cc1cccc2ccccc12 metric_name="PGE2 EC50 with compound" observed_measurement=0.33

## Input Reported PGE2 EC50 with compound, molecule CCOP(=O)(OCC)c1nc(/C=C/c2ccccc2)oc1NCc1ccccc1 : ____
## Output 1.27

---

Assay System: UniProt:P43116
Method: EP2 receptor modulators, dose response, cell-based, human EP2, PGE2 EC50 shift (AID 1421)
Experimental Conditions: EP2-expressing cells, PGE2 EC50 shift by compound; measured here: PGE2 EC50 at 6.7 uM compound
Documented PGE2 EC50 with compound across a set of molecules
Lab book: enter the figure in nM, no units written.

Example molecules with recorded PGE2 EC50 with compound:
molecule=Cc1ccc(/C=C/c2nc3ccccc3c(=O)n2CCc2ccccc2)cc1 assay_system=UniProt:P43116 unit_descriptor=nM observed_measurement=1.15
molecule="CC1CCN(C(C)C(=O)Nc2ccccc2-c2ccccc2)CC1 (stereo unspecified)" assay_system=UniProt:P43116 unit_descriptor=nM observed_measurement=1.27
molecule=Cc1ccc(Oc2nc(-c3ccccc3)ncc2S(C)(=O)=O)cc1 assay_system=UniProt:P43116 unit_descriptor=nM observed_measurement=1.12

## Input Reported PGE2 EC50 with compound, molecule CCCc1cc(-c2n[nH]c(=S)n2Cc2ccccc2)cs1 : ____
## Output 1.36

## Input # repeat for Cc1cc(O)c(C=O)c2c1C(=O)Oc1c(C)c(O)c3c(c1O2)C(O)OC3=O (stereo unspecified)
## Output 0.76

## Input # repeat for N#Cc1sc2nc(C3CC3)cc(-c3ccc(Cl)cc3)c2c1N
## Output 0.81

## Input # repeat for c1ccc(CCc2cccnc2)nc1
## Output 1.62

## Input # repeat for CCn1c(=NC(=O)c2ccc(S(=O)(=O)N3CCOCC3)cc2)sc2cccc(OC)c21
## Output 0.91

## Input # repeat for O=C(CN1CCCCCC1)Nc1ccccc1Oc1ccccc1
## Output 0.96

## Input # repeat for O=C(CNCC1CCCCC1)Nc1ccccc1N1CCCCC1
## Output 0.81

## Input # repeat for Cc1cc(C#N)c(SCC(N)=O)nc1-c1ccc(F)cc1
## Output 1.4
